The reported measurements were obtained from ChEMBL document CHEMBL3352652.

- TEST_DETAILS: Cytotoxicity against mouse J774A1 cells assessed as cell viability by MTT assay relative to control
- Type: cell-based
- CONDITION_CONTEXT: J774.A1
pIC50 by entry:
By convention, pIC50 is the negative base-10 log of a molar concentration.

Worked set:
structure_string=CC1(C)CC[C@]2(C(=O)O)CC[C@]3(C)C(=CC[C@@H]4[C@@]5(C)Cc6c([nH]c7ccccc67)C(C)(C)[C@@H]5CC[C@]43C)[C@@H]2C1 measured=4.08
structure_string=Cc1ccc(C)c(NC(=O)[C@]23CCC(C)(C)C[C@H]2C2=CC[C@@H]4[C@@]5(C)Cc6c([nH]c7ccccc67)C(C)(C)[C@@H]5CC[C@@]4(C)[C@]2(C)CC3)c1 measured=4.07
structure_string=CC1(C)CC[C@]2(C(=O)O)CC[C@]3(C)C(=CC[C@@H]4[C@@]5(C)CC/C(=N\O)C(C)(C)[C@@H]5CC[C@]43C)[C@@H]2C1 measured=4.07
structure_string=CC1(C)CC[C@]2(C(=O)NN)CC[C@]3(C)C(=CC[C@@H]4[C@@]5(C)Cc6c([nH]c7ccccc67)C(C)(C)[C@@H]5CC[C@]43C)[C@@H]2C1 measured=4.04
structure_string=CNC(=O)[C@]12CCC(C)(C)C[C@H]1C1=CC[C@@H]3[C@@]4(C)Cc5c([nH]c6ccccc56)C(C)(C)[C@@H]4CC[C@@]3(C)[C@]1(C)CC2 measured=4.04

Inquiry: Name the recorded pIC50 for "CC1(C)CC[C@]2(C(=O)NCc3ccccc3)CC[C@]3(C)C(=CC[C@@H]4[C@@]5(C)Cc6c([nH]c7ccccc67)C(C)(C)[C@@H]5CC[C@]43C)[C@@H]2C1" .
Reply text: 4.03

###

pIC50 by entry:
- TEST_DETAILS: Cytotoxicity against mouse J774A1 cells assessed as cell viability by MTT assay relative to control
- Assay type: cell-based
- CONDITION_CONTEXT: J774.A1
By convention, pIC50 is the negative base-10 log of a molar concentration.

Worked set:
compound=Cc1ccc(NC(=O)[C@]23CCC(C)(C)C[C@H]2C2=CC[C@@H]4[C@@]5(C)Cc6c([nH]c7ccccc67)C(C)(C)[C@@H]5CC[C@@]4(C)[C@]2(C)CC3)cc1 measured=4.08
compound=CC1(C)CC[C@]2(C(=O)Cl)CC[C@]3(C)C(=CC[C@@H]4[C@@]5(C)Cc6c([nH]c7ccccc67)C(C)(C)[C@@H]5CC[C@]43C)[C@@H]2C1 measured=4.05

// switching to the query compound
Inquiry: Name the recorded pIC50 for CC1(C)CC[C@]2(C(=O)O)CC[C@]3(C)C(=CC[C@@H]4[C@@]5(C)CCC(=O)C(C)(C)[C@@H]5CC[C@]43C)[C@@H]2C1 [OLEANONIC ACID] .
Reply text: 4.06

###

- Tested on: RAW264.7
- TEST_DETAILS: Inhibition of LPS-induced IL1-beta release in mouse RAW264.7 cells compound preincubated at 20 ug/ml for 1 hr before LPS treatment measured after 6 to 12 hrs by sandwich immunoassay
- Format: functional
inhibition at 20 µg/mL by entry:
Just the number in %, nothing appended.

Worked set:
compound="CC(=O)O[C@H]1CC[C@]2(C)[C@H]3CC=C4[C@@H]5CC(C)(C)CC[C@]5(C(=O)O)CC[C@@]4(C)[C@]3(C)CC[C@H]2C1(C)C [ACETYL OLEANOLIC ACID]" observable="inhibition at 20 µg/mL" reading_unit=% measured=22.8
compound=CNC(=O)[C@]12CCC(C)(C)C[C@H]1C1=CC[C@@H]3[C@@]4(C)Cc5c([nH]c6ccccc56)C(C)(C)[C@@H]4CC[C@@]3(C)[C@]1(C)CC2 observable="inhibition at 20 µg/mL" reading_unit=% measured=13.3
compound=CC1(C)CC[C@]2(C(=O)NC3CCCCC3)CC[C@]3(C)C(=CC[C@@H]4[C@@]5(C)Cc6c([nH]c7ccccc67)C(C)(C)[C@@H]5CC[C@]43C)[C@@H]2C1 observable="inhibition at 20 µg/mL" reading_unit=% measured=37.5

Inquiry: Name the recorded inhibition at 20 µg/mL for "CC1(C)CC[C@]2(C(=O)NN)CC[C@]3(C)C(=CC[C@@H]4[C@@]5(C)Cc6c([nH]c7ccccc67)C(C)(C)[C@@H]5CC[C@]43C)[C@@H]2C1" .
Reply text: 13.9
